Target: AMP-activated protein kinase, AMPK (Homo sapiens) (UniProt P54646+O43741+P54619+Q9UGJ0+Q9Y478+Q13131+Q9UGI9)
Test: AMP-dependent Kinase enzyme assay. An in vitro enzyme assay that detects ADP turnover that is directly proportional to AMPK activity. This uses naive AMPK that is activated during the assay with MK-8722
Assay type: functional
Set-up: scale not given: direction of the effect not stated beside the values
Details: 30 µM
endpoint name: Percent Effect (%)
Give bare numbers, in %.

Please state Percent Effect for every compound in the list that follows.
1. O=C(Cc1ccccc1Cl)Nc1cc(N2CCCC2)ncn1
2. CC(C)n1cc(CN(C)C[C@@H]2CCCN3CCCC[C@H]23)cn1
3. Cc1cnn(C2CN(CCCOc3ccc(C#N)cc3)C2)c1
4. COC1CCN(S(=O)(=O)N2CC[C@@](O)(C3CCC3)[C@H](C)C2)CC1

Response:
0.395
3.96
-0.666
-3.56

Cited source for all entries: ChEMBL document CHEMBL3988442
